B1: DCAF4 (parent)
chain: DSHILLCLMGLAETPGCATLLPAS

Variants of: B1
procedure_text: protein stability index of a GFP-peptide fusion (GPS, HEK-293T) (PSI 1-6); higher = more stable;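 note: lentivirally expressed fusions sorted by FACS into six bins by GFP to DsRed ratio, PSI derived from sequencing read proportions per bin multiplied by bin number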
applied_conditions: c terminus: a fixed tail appended
measurement_label: protein stability index

variant_designation=P15T result=2.3
variant_designation=C17E result=2.63
variant_designation=S2Q result=3.81
variant_designation=A23M result=1.66
variant_designation=A18H result=2.28
variant_designation=D1L result=3.08
variant_designation=P15S result=2.52
variant_designation=A23L result=1.69
variant_designation=D1H result=2.19
variant_designation=L20P result=2
variant_designation=T14R result=2.05
variant_designation=H3Q result=2.02
variant_designation=C7E result=1.7
variant_designation=D1C result=3.49
variant_designation=D1V result=3.42
variant_designation=A23D result=2.79
variant_designation=A18K result=2.82
variant_designation=E13Q result=2.36
variant_designation=A18G result=1.11
variant_designation=A18I result=2.33
variant_designation=L6R result=2.98
variant_designation=L8R result=2.62
variant_designation=I4L result=2.96
variant_designation=L21H result=4.41
variant_designation=P15E result=2.06
variant_designation=A18P result=2.65
variant_designation=A12D result=2.02
variant_designation=D1E result=2.55
variant_designation=T14A result=2.93
variant_designation=M9H result=2.14
variant_designation=S2P result=2.04
variant_designation=E13P result=2
variant_designation=M9T result=1.98
variant_designation=C17F result=2.34
variant_designation=H3E result=2.27
variant_designation=T14H result=3.66
variant_designation=G16A result=3.16
variant_designation=C17I result=2.04
variant_designation=L11I result=1.97
variant_designation=T19F result=3.47
variant_designation=L8S result=1.69
variant_designation=G10K result=3.89
variant_designation=L6M result=2.02
variant_designation=I4M result=1.86
variant_designation=C7A result=2.67
variant_designation=I4V result=3.46
